The measured values listed here are drawn from patent US7101878B1.

Assay: Pharmacokinetic studies / bioavailability in rats
Format: in vivo, rat
Conditions: male, rat, plasma, po, 20 mg/kg, rat male; p.o. 20 mg/kg; vehicle per footnote (DMSO/cremophor/saline)
MEASURED_ENDPOINT: log10 of Cmax (log10 of the value in nM)
The common logarithm of Cmax in nM is what is listed.

Q) Which log10 of Cmax is listed for Cc1cc2c(cc1Cc1ccc(C(=O)NCc3cccc(CNc4nccc(NC[C@@H]5CCCO5)n4)c3)o1)C(C)(C)CCC2(C)C [Compound 148] ?
A) 1.48

Q) Which log10 of Cmax is listed for Cc1cc2c(cc1Cc1ccc(C(=O)NCc3nc4ccccc4[nH]3)o1)C(C)(C)CCC2(C)C [Compound 48] ?
A) 2.52

Q) Which log10 of Cmax is listed for COc1cc(OC)c(NC(=O)c2ccc(Cc3c(C)cc(C)cc3C)o2)c(OC)c1 [Compound 168] ?
A) 2.48

Q) Which log10 of Cmax is listed for COc1cc(OC)c(NC(=O)c2ccc(Cc3cc4c(cc3C)C(C)(C)CCC4(C)C)o2)c(OC)c1 [Compound 134] ?
A) 2.79

Q) Which log10 of Cmax is listed for COc1cc(OC)c(NC(=O)c2ccc(Cc3cc4c(cc3OC)C(C)(C)CCC4(C)C)o2)c(OC)c1 [Compound 169] ?
A) 2.99

Q) Which log10 of Cmax is listed for Cc1cc2c(cc1Cc1ccc(C(=O)NCc3cccc(CNc4ccnc(NC[C@@H]5CCCO5)n4)c3)o1)C(C)(C)CCC2(C)C [Compound 136] ?
A) 2.38

Q) Which log10 of Cmax is listed for COc1cccc(OC)c1NC(=O)c1ccc(Cc2cc3c(cc2C)C(C)(C)CCC3(C)C)o1 [Compound 20] ?
A) 2.30

* * *

Molecular target: human GnRH receptor (Homo sapiens, UniProt P30968)
Construct: expressed in transfected cells; host or cells: HEK 293 (hGnRH-R/293, from Dr. Stuart Sealfon)
Sequence (P30968 whole entry): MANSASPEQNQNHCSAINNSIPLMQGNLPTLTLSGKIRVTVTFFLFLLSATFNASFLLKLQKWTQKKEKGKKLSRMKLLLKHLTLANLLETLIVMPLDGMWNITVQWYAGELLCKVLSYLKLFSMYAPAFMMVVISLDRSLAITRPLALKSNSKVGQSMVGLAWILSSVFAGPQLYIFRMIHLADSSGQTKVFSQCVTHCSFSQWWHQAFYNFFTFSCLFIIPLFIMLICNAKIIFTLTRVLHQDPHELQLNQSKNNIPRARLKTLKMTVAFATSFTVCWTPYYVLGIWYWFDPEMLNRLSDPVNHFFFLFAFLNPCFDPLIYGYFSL
Assay: Radioligand binding, 125I-GnRH-A displacement, membranes of HEK 293 cells with human GnRH receptor
Settings: 1 uM; read-out: % Inhib. @ 1 uM hGnRH
MEASURED_ENDPOINT: inhibition at 1 µM (%)
Please give a number only; it is taken to be in %.

| COMPOUND | MEASUREMENT |
| --- | --- |
| Cc1cc2c(cc1Cc1ccc(C(=O)NC(CO)CC3CCCCC3)o1)C(C)(C)CCC2(C)C (stereo not shown) [drawing 1215] | 10 |
| Cc1cc2c(cc1Cc1ccc(C(=O)N3CCc4cc(O)c(O)cc4C3C)o1)C(C)(C)CCC2(C)C (stereo not shown) | -13 |
| Cc1cc2c(cc1Cc1ccc(C(=O)NCCCN3CCN(C)CC3)o1)C(C)(C)CCC2(C)C [drawing 980] | 26 |
| Cc1cc2c(cc1Cc1ccc(C(=O)N(CCCO)Cc3ccccn3)o1)C(C)(C)CCC2(C)C [drawing 1107] | -4 |

Q) Which inhibition at 1 µM is listed for Cc1cc2c(cc1Cc1ccc(C(=O)Nc3nc(N(C)C)nc4nc[nH]c34)o1)C(C)(C)CCC2(C)C [drawing 1008] ?
A) -13

* * *

Molecular target: mouse GnRH receptor (Mus musculus)
Construct: expressed in transfected cells; host or cells: 293 cells
Sequence (Q01776 1-327): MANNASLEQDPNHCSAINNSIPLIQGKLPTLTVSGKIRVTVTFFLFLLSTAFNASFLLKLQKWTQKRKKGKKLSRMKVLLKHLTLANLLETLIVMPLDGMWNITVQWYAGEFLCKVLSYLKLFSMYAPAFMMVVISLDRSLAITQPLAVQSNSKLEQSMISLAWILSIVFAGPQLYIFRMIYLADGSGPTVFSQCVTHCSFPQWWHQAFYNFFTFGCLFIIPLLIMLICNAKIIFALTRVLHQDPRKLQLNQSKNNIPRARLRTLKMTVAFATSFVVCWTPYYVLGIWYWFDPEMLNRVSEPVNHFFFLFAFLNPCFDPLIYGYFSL
Test: Radioligand binding, 125I-GnRH-A, 293 cells expressing mouse GnRH receptors
Settings: 10 uM; read-out: % Inhib. @ 10 uM mGnRH
Quick rule: inhibition at 10 µM of at least 80% means rule met, below that means rule not met.

Consider the following illustrative entries.
| COMPOUND | CLASS |
| --- | --- |
| CCC(C)CNC(=O)c1ccc(Cc2cc3c(cc2C)C(C)(C)CCC3(C)C)o1 (centres unmarked) [drawing 1499] | rule not met |
| Cc1cc2c(cc1Cc1ccc(C(=O)N(CCCc3ccccc3)Cc3ccc(Oc4ccccc4)cc3)o1)C(C)(C)CCC2(C)C | rule not met |
| Cc1cc2c(cc1Cc1ccc(C(=O)N3CCC(O)CC3)o1)C(C)(C)CCC2(C)C [drawing 1510] | rule not met |
| CCN1CC(N(CCC(C)CCCC(C)(C)O)C(=O)c2ccc(Cc3cc4c(cc3C)C(C)(C)CCC4(C)C)o2)CN1CC (centres unmarked) [drawing 1567] | rule met |
| Cc1cc2c(cc1Cc1ccc(C(=O)N3CCCC3C)o1)C(C)(C)CCC2(C)C (centres unmarked) [drawing 1545] | rule met |
| Cc1cc2c(cc1Cc1ccc(C(=O)NC(CO)C(C)(C)C)o1)C(C)(C)CCC2(C)C (centres unmarked) | rule met |

Q) Reported inhibition at 10 µM reaches at least 80% for Cc1cc2c(cc1Cc1ccc(C(=O)NCCCN(C)C)o1)C(C)(C)CCC2(C)C ?
A) rule met
